Origin of values: ChEMBL document CHEMBL3885861

Organism: Rattus norvegicus
experiment: Open TG-GATES - Regimen: Single
Type: toxicity, organism-based, Sprague-Dawley
Design: regimen Single, gender Male, age 6 weeks
test-conditions: in vivo, po, 0 mg/kg, 24 h, tissue Plasma, route gavage, dose level Control
Each record here notes measured ALP.

{"columns": ["compound", "ALP"],
 "data": [
  ["COc1cc2c(c3oc(=O)c4c(c13)CCC4=O)[C@@H]1C=CO[C@@H]1O2 [AFLATOXIN]", "1775.8 IU/L"],
  ["Clc1ccccc1CN1CCc2sccc2C1 [TICLOPIDINE]", "880.2 IU/L"],
  ["Cn1c(=O)c2[nH]cnc2n(C)c1=O.O [THEOPHYLLINE]", "1398.8 IU/L"]
]}
